tested on: Wolbachia pipientis; assay: Anti-Wolbachia Cell-Based Screen; assay type: functional; set-up: scale not given: in the data most compounds retested in dose-response had high values; settings: 5 µM
In all, about 48,000 compounds went through this assay and about 13,000 (27%) showed an effect of 50% or more. This is one part of the list.
ASSAY_ENDPOINT: Percent Effect (%)
Write it as a number; the unit % goes unstated.

COCC(=O)N1CCOC(c2ccc(N(C)C)cn2)C1 (stereo unspecified): 108.5

Now turn to the next compound.
For the compound Cc1ccc(C2CN(Cc3cnc(-c4cccnc4)s3)CCO2)o1 (stereo unspecified) , report Percent Effect.
6.287

* * *

system: Wolbachia pipientis; assay: Anti-Wolbachia Cell-Based Screen; type: functional; set-up: scale not given: in the data most compounds retested in dose-response had high values; conditions: 5 µM
Among all 48,000 compounds or so, about 13,000 (27%) showed an effect of 50% or more. Some of the results follow.
ASSAY_ENDPOINT: Percent Effect (%)
Write it as a number; the unit % goes unstated.

O=C(NC1CC1)N1CCC2(CC1)CC(N1CCOCC1)c1ccccc12.O=C(O)C(F)(F)F (stereo not drawn): 2.797
Cc1nc(C)n(CC2CCCN(CC(=O)N3CCCC3)C2)n1 (stereo not drawn): 118.1

For the compound `CC(C)NC(=O)[C@@H]1CN(C(=O)C2CC2)C[C@]12Cc1ccccc1C(=O)N2` , report Percent Effect.
129.2

For the compound CCC(C)CS(=O)(=O)NC(=O)C1CC1 (stereo not drawn) , report Percent Effect.
-14.71

For the compound `CN(CCC(=O)NC1CC1)Cc1ccc(Cl)s1` , report Percent Effect.
-12.79

For the compound `Cc1ncnc(NCc2cc3n(n2)CCCN(S(C)(=O)=O)C3)c1C` , report Percent Effect.
3.244

For the compound CC(C)NC(=O)C1CN(C(=O)c2ccco2)CC12CCOCC2 (stereo not drawn) , report Percent Effect.
3.507

For the compound CNC(=O)COC(=O)c1ccoc1CN1c2ccccc2CC1C (stereo not drawn) , report Percent Effect.
-15.23

For the compound O=C(CN(Cc1cccs1)C1CCS(=O)(=O)C1)NCCc1cccs1 (stereo not drawn) , report Percent Effect.
4.084

For the compound `CC(C)C[C@@H]1N[C@H](C(=O)NC(C)C)Cc2c[nH]c3cccc1c23` , report Percent Effect.
-15.72

For the compound `CCN(CC)CC[C@H]1CN(C(=O)CC(C)(C)C)CC[C@H]1CC(=O)O` , report Percent Effect.
-10.9

For the compound `CCC[C@@H](NC(N)=O)C(=O)N1Cc2ccccc2-c2ccccc2C1` , report Percent Effect.
-11.77

For the compound Cc1nc(C)n(CC2CCCN(CCCS(=O)(=O)N(C)C)C2)n1 (stereo not drawn) , report Percent Effect.
-11.1

For the compound CC(CC(=O)Nc1ncn(CC(=O)NCc2ccccc2)n1)C1CC1 (stereo not drawn) , report Percent Effect.
-9.655

For the compound CC(C)NC(=O)C1CN(C(=O)c2cccs2)CC12CCOCC2 (stereo not drawn) , report Percent Effect.
-10.16

For the compound COC(=O)c1cc(NC(=O)NCC2CCS(=O)(=O)C2)ccc1Cl (stereo not drawn) , report Percent Effect.
-31.29

* * *

tested on: Wolbachia pipientis; assay: Anti-Wolbachia Cell-Based Screen; format: functional; parameters: scale not given: in the data most compounds retested in dose-response had high values; settings: 5 µM
The campaign covered roughly 48,000 compounds. About 13,000 (27%) showed an effect of 50% or more. The list shows a part of the results.
ASSAY_ENDPOINT: Percent Effect (%)
Write it as a number; the unit % goes unstated.

Some compounds with recorded Percent Effect:
COc1ccc(CN(C(=O)C2CCCOC2)c2ccncc2)cc1 (stereo not given): -5.222
CC(O)CN1CCN(C(=O)c2cccn2Cc2ccncc2)CC1 (stereo not given): -5.756
O=c1[nH]c2ccccc2cc1CN(Cc1ccccn1)CC1CCCO1 (stereo not given): 7.522

For the compound COc1ccc(CN(Cc2cncn2C)CC2CCCO2)cc1OC.O=C(O)CC(O)(CC(=O)O)C(=O)O (stereo not given) , report Percent Effect.
-10.71

For the compound COc1ccc(CN(Cc2cncn2C)CC2CCCO2)cc1.O=C(O)CC(O)(CC(=O)O)C(=O)O (stereo not given) , report Percent Effect.
108.8

For the compound CCN(CC)Cc1cc(C(=O)N2CCCC(O)(CO)C2)c(C)o1 (stereo not given) , report Percent Effect.
4.357

For the compound O=C(Cc1cccnc1)NC1COc2ccccc2C1=O (stereo not given) , report Percent Effect.
-10.11

For the compound COc1ccc(CN(Cc2c[nH]cn2)CC2CCCO2)c(OC)c1.O=C(O)CC(O)(CC(=O)O)C(=O)O (stereo not given) , report Percent Effect.
99.96

For the compound `CNC(=O)c1cc2c(nc1NCC(C)C)CCN(S(C)(=O)=O)CC2` , report Percent Effect.
-6.713

For the compound CC(O)CN1CCN(C(=O)c2cccc(CC#N)c2)CC1 (stereo not given) , report Percent Effect.
0.248
